Target: BTK (Homo sapiens)
Conditions: 0.75 uM BTK, […] probe 3l, 15 min preincubation, 10 µM, inhibitor, BTK inhibition (%)
Assign BTK inhibition (%) to each entry below.
Give just the number in %; leave the unit off.

# input Note down BTK inhibition (%) recorded for O=C(O)O [PCM-0216262]
# output -6.2

# input Note down BTK inhibition (%) recorded for O=C(O)O [PCM-0216036]
# output 4.3

# input Note down BTK inhibition (%) recorded for Cc1cc(C)nc(NS(=O)(=O)c2ccc(N)cc2)n1 [PCM-0216008]
# output 11.7

# input Note down BTK inhibition (%) recorded for "CCCC(CCC)C(=O)O"
# output 6.9

# input Note down BTK inhibition (%) recorded for COc1ccc2[nH]c([S@@+]([O-])Cc3ncc(C)c(OC)c3C)nc2c1 [PCM-0214571]
# output -13.2

# input Note down BTK inhibition (%) recorded for N[C@@H](C=O)[C@@H](O)[C@H](O)[C@H](O)CO [PCM-0215073]
# output -2.8

# input Note down BTK inhibition (%) recorded for Nc1ccc(S(=O)(=O)Nc2ncccn2)cc1 [PCM-0085802]
# output -14

# input Note down BTK inhibition (%) recorded for "CN(c1ncccc1CNc1nc(Nc2ccc3c(c2)CC(=O)N3)ncc1C(F)(F)F)S(C)(=O)=O"
# output 78.6

# input Note down BTK inhibition (%) recorded for CC[C@H]1OC(=O)[C@H](C)[C@@H](O[C@H]2C[C@@](C)(OC)[C@@H](O)[C@H](C)O2)[C@H](C)[C@@H](O[C@@H]2O[C@H](C)C[C@H](N(C)C)[C@H]2O)[C@](C)(O)C[C@@H](C)CN(C)[C@H](C)[C@@H](O)[C@]1(C)O [PCM-0216649]
# output 11.7

# input Note down BTK inhibition (%) recorded for CN1[C@@H]2CC[C@H]1CC(OC(=O)c1c[nH]c3ccccc13)C2 (stereo partly shown) [PCM-0086109]
# output -11.7

# input Note down BTK inhibition (%) recorded for Nc1nc2[nH]cc(CCc3ccc(C(=O)N[C@@H](CCC(=O)O)C(=O)O)cc3)c2c(=O)[nH]1 [PCM-0215446]
# output -10.2

# input Note down BTK inhibition (%) recorded for "COc1cc(Nc2ncc(F)c(Nc3ccc4c(n3)NC(=O)C(C)(C)O4)n2)cc(OC)c1OC"
# output 31.7

# input Note down BTK inhibition (%) recorded for Cc1cc(NS(=O)(=O)c2ccc(N)cc2)no1 [PCM-0215124]
# output 7

# input Note down BTK inhibition (%) recorded for "CN(C)[C@@H]1C(=O)C(C(N)=O)=C(O)[C@@]2(O)C(=O)C3=C(O)c4c(O)cccc4[C@@](C)(O)[C@H]3[C@H](O)[C@@H]12"
# output 33.5

# input Note down BTK inhibition (%) recorded for Cc1c(O)c(=O)ccn1C [PCM-0085974]
# output -30.4

# input Note down BTK inhibition (%) recorded for C[C@@H]1O[C@@H]1P(=O)(O)O [PCM-0215255]
# output -21

# input Note down BTK inhibition (%) recorded for CN1[C@@H]2CC[C@H]1CC(OC(=O)c1c[nH]c3ccccc13)C2 (stereo partly shown) [PCM-0216191]
# output -12.4

# input Note down BTK inhibition (%) recorded for C[C@@H]1O[C@@H]1P(=O)(O)O [PCM-0216062]
# output -39.1

# input Note down BTK inhibition (%) recorded for "COc1ccc2c(c1)c(CC(=O)O)c(C)n2C(=O)c1ccc(Cl)cc1"
# output 5.5

# input Note down BTK inhibition (%) recorded for C=C1[C@H](CO)[C@@H](O)C[C@@H]1n1cnc2c(=O)[nH]c(N)nc21 [PCM-0095007]
# output -4.7

# input Note down BTK inhibition (%) recorded for "C[C@H](CCC(=O)NCCS(=O)(=O)O)[C@H]1CC[C@H]2[C@@H]3[C@@H](O)C[C@@H]4C[C@H](O)CC[C@]4(C)[C@H]3CC[C@]12C"
# output 4.7

# input Note down BTK inhibition (%) recorded for "COc1cc2nccc(Oc3ccc(NC(=O)C4(C(=O)Nc5ccc(F)cc5)CC4)cc3)c2cc1OC"
# output 123.4

---

Biological target: UniProtKB Q06187
Assay: biochemical
Details: read-out: BTK inhibition (%), 0.75 uM BTK, […] probe 3l, 15 min preincubation
Assign inhibition at 10 µM to each entry below.
Give just the number in %; leave the unit off.

# input Note down inhibition at 10 µM recorded for "CCCCCCCCCCCCCCCCOP(=O)([O-])OCC[N+](C)(C)C"
# output -72.3

# input Note down inhibition at 10 µM recorded for "C[C@@H]1O[C@H]2O[C@H]3[C@@H](OC[C@H](O)[C@@H]3O)OC(=O)[C@]34CCC(C)(C)C[C@H]3C3=CC[C@H]5[C@@]6(C)C[C@H](O)[C@H](O[C@@H]7O[C@H](CO)[C@@H](O)[C@H](O)[C@H]7O[C@@H]7OC[C@H](OC(=O)C[C@](C)(O)CC(=O)O[C@@H]1[C@@H](O[C@@H]1OC[C@@H](O)[C@H](O)[C@H]1O)[C@H]2O)[C@H](O)[C@H]7O)[C@@](C)(CO)[C@@H]6CC[C@@]5(C)[C@]3(C)CC4"
# output 6.2

# input Note down inhibition at 10 µM recorded for "COC(=O)N[C@H](C(=O)N1CCC[C@H]1c1ncc(-c2ccc3c(c2)O[C@@H](c2ccccc2)n2c-3cc3cc(-c4cnc([C@@H]5CCCN5C(=O)[C@@H](NC(=O)OC)C(C)C)[nH]4)ccc32)[nH]1)C(C)C"
# output 52.5

# input Note down inhibition at 10 µM recorded for CC(ONC(=O)c1cc(C(F)(F)F)cc(C(F)(F)F)c1)C(=O)Nc1ccc(Cl)cc1 (stereo not drawn)
# output 7.7

# input Note down inhibition at 10 µM recorded for "CCOC(=O)n1ccn(C)c1=S"
# output -17.1

# input Note down inhibition at 10 µM recorded for "O=C1c2c(O)cccc2[C@H]([C@@H]2O[C@H](CO)[C@@H](O)[C@H](O)[C@H]2O)c2cc(CO)cc(O)c21"
# output 21

---

Target: BTK (Homo sapiens, UniProt Q06187)
Sequence (Q06187 402-655 limits assumed): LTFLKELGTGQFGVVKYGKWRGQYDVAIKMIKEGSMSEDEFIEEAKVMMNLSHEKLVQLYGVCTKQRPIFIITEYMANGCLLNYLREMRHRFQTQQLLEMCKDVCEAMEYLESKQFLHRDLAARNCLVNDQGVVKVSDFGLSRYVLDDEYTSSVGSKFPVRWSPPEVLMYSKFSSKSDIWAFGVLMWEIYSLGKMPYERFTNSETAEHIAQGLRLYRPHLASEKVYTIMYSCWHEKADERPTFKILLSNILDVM
Test: biochemical
Conditions: read-out: BTK inhibition (%), 0.75 uM BTK, […] probe 3l, 15 min preincubation
readout_label: inhibition at 10 µM (%)
Give just the number in %; leave the unit off.

# input Note down inhibition at 10 µM recorded for NC(=O)N1CCC(CC(=O)N2CCC([C@H]3c4ncc(Br)cc4CCc4cc(Cl)cc(Br)c43)CC2)CC1 [PCM-0095392]
# output 32.7

# input Note down inhibition at 10 µM recorded for O=C(O)CCN1C(=O)/C(=C/c2ccc(-c3ccc([N+](=O)[O-])cc3)o2)SC1=S [PCM-0215696]
# output 59.5

# input Note down inhibition at 10 µM recorded for COc1cc2oc(-c3ccccc3)cc(=O)c2c(OC)c1OC [PCM-0216616]
# output -34

# input Note down inhibition at 10 µM recorded for CC(C)(C)OC(=O)N[C@@H]1CCCC[C@H]1N [PCM-0215045]
# output -24.1

# input Note down inhibition at 10 µM recorded for O=C(NC1CC1)c1cc(-c2cccs2)on1 [PCM-0215520]
# output -2.3

---

Target: BTK (Homo sapiens)
Assay: biochemical
Conditions: read-out: BTK inhibition (%), 0.75 uM BTK, […] probe 3l, 15 min preincubation
Where a SMILES comes first, the peptide text is derived from it. [ ]: non-standard residue; d: D form.
Assign inhibition at 10 µM to each entry below.
Give just the number in %; leave the unit off.

# input Note down inhibition at 10 µM recorded for CC(C)C[C@@H]1NC(=O)[C@@H](C(C)C)NC(=O)[C@@H]2CCCN2C(=O)[C@@H](CC(=O)O)NC(=O)[C@@H](Cc2c[nH]c3ccccc23)NC1=O [PCM-0215512] (cyclo(L[dW][dD]P[dV]))
# output -5.4

# input Note down inhibition at 10 µM recorded for "NC(=O)c1cccc2[nH]c(-c3ccc([C@@H]4CCCN4)cc3F)nc12"
# output 17.1

# input Note down inhibition at 10 µM recorded for "CCn1c(-c2nonc2N)nc2c(C#CC(C)(C)O)ncc(OC[C@H]3CCCNC3)c21"
# output -4.1

# input Note down inhibition at 10 µM recorded for "CCNC(=O)CCC/C=C\C[C@@H]1[C@@H](/C=C/[C@@H](O)CCc2ccccc2)[C@H](O)C[C@@H]1O"
# output 15.2

# input Note down inhibition at 10 µM recorded for "COc1ccc2[nH]cc(CCNC(C)=O)c2c1"
# output 11.7

# input Note down inhibition at 10 µM recorded for "CNC(=O)CN1CCC(Oc2cc3c(Nc4cccc(Cl)c4F)ncnc3cc2OC)CC1"
# output 23.4

# input Note down inhibition at 10 µM recorded for "CC(=O)N1CCC(Nc2cc(C(=O)NC[C@H](O)CN3CCc4ccccc4C3)ncn2)CC1"
# output -0.8

# input Note down inhibition at 10 µM recorded for "C=C(C)[C@@H]1CC[C@@]2(C)CCC(=O)C(C)=C2C1"
# output -11.6
